These entries and their values trace back to paper PMC7509217.

- targetOrTestSystem: rat ACC2 (acetyl-CoA carboxylase 2) (Rattus norvegicus, UniProt O70151)
- Sequence (O70151 1-2456): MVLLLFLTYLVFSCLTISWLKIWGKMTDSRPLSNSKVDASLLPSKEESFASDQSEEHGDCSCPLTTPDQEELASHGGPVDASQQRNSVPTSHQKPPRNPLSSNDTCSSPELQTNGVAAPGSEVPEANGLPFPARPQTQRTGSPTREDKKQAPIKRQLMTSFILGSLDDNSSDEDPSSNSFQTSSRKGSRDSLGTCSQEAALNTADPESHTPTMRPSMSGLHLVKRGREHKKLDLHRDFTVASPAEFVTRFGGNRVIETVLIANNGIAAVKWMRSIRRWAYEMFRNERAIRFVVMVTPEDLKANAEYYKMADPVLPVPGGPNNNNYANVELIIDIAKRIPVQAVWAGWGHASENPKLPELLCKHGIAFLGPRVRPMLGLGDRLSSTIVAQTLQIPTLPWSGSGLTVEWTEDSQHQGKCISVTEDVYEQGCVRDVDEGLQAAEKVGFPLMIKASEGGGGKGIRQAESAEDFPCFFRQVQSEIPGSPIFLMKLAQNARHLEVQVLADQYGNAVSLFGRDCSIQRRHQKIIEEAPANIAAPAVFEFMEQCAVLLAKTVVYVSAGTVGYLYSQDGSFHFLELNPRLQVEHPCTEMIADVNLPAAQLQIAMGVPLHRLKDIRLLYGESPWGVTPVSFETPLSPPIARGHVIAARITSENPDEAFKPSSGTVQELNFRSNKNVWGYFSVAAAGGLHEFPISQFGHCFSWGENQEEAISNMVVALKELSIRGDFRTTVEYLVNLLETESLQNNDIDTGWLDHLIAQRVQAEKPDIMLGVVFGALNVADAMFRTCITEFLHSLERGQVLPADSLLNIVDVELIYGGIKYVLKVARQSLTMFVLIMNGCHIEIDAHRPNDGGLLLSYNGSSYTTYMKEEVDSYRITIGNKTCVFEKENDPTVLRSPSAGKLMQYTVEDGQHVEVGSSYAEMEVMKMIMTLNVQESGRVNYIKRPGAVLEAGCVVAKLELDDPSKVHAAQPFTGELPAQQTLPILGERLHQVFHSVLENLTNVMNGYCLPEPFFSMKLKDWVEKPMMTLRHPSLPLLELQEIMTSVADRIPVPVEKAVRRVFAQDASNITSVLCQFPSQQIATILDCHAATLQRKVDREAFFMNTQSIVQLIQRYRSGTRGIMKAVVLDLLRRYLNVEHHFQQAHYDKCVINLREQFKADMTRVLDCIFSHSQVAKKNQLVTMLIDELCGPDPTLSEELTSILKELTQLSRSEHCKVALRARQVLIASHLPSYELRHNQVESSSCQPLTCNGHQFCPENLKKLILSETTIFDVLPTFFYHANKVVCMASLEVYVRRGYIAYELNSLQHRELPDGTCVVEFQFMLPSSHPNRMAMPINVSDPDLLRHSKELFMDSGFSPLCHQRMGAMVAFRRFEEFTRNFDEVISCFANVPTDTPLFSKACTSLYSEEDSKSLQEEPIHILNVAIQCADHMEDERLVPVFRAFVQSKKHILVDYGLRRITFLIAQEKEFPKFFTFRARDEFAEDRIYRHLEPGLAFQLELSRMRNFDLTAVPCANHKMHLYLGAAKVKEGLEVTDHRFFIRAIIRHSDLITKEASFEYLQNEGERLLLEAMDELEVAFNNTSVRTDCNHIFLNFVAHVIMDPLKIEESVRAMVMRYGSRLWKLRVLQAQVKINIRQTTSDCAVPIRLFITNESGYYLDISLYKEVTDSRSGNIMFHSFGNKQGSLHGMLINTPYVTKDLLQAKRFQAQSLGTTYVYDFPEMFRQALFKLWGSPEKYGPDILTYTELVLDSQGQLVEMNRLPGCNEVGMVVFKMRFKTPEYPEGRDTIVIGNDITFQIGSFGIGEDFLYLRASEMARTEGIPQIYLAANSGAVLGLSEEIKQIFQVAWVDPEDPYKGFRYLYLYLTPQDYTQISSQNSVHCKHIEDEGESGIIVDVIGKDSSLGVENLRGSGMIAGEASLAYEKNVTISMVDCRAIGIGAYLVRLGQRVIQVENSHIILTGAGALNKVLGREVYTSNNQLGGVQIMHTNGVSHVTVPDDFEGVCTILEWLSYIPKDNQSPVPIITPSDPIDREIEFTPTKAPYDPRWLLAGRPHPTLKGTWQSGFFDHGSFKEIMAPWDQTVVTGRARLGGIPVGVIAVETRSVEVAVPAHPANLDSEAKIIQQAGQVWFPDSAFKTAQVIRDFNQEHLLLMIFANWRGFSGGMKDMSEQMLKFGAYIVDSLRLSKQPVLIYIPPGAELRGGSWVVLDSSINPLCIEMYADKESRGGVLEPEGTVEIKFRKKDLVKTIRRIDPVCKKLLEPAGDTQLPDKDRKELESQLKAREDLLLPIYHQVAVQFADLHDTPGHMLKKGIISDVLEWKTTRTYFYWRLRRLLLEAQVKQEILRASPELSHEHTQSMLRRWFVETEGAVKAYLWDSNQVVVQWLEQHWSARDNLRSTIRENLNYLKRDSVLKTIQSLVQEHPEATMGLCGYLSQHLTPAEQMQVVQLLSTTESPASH
- measurementProtocol: citrate-activated ACC enzyme, […]bicarbonate incorporation into malonyl-CoA
readoutKind: IC50 (nM)
Answers are plain numbers, in nM.

The compound listed as COc1cc(C(=O)N2CCC3(CC2)CC(=O)c2c(cnn2C(C)C)C3)cc(-c2ccc(C(=O)O)cc2)n1 has a reported IC50 of 8.2
